Test system: A498
Assay type: cell-based
Conditions: Homo sapiens, one dose 10^-5 M, 48 h
I'd appreciate it if you could supply % growth at 10 µM values for the items below.
Could you give me the number in %? Just the number is fine.

Query: # get_value(readout='% growth at 10 µM', item= N=C(NN=Cc1ccccc1)c1c(N)nc(S)nc1-c1ccc(Cl)cc1Cl )
Reply: 125

Query: Further, for N=C(NN=Cc1ccc(Br)cc1)c1c(N)nc(S)nc1-c1ccc(Cl)cc1 ?
Reply: 88.4

Query: Queued: CN(C)c1ccc(-c2nc(S)nc(N)c2C(=N)NN=Cc2ccc(Cl)cc2Cl)cc1
Reply: 114

Query: Now try COc1ccc(/C=N\NC(=N)c2c(N)nc(S)nc2-c2ccc(N(C)C)cc2)cc1 .
Reply: 119

---

Consider the following molecules; for each one, report its activity at 10 µM.
System: LOX IMVI
Type: cell-based
Conditions: Homo sapiens, one dose 10^-5 M, 48 h, read-out: % growth
State just the number; it will be interpreted in %.

Query: Identify the measured activity at 10 µM of CN(C)c1ccc(-c2nc(S)nc(N)c2C(=N)NN=Cc2ccccc2)cc1 [Compound 4a] for LOX IMVI.
Reply: 98.3

Query: Another: N=C(NN=Cc1ccc(Cl)cc1)c1c(N)nc(S)nc1-c1ccc(Cl)cc1Cl [Compound 4n]
Reply: 95.4

Query: N#Cc1c(N)nc(S)nc1-c1ccc(Cl)cc1Cl [Compound 1c] ?
Reply: -49.2

Query: Same thing, different molecule: N=C(NN=Cc1ccccc1)c1c(N)nc(S)nc1-c1ccc(Cl)cc1 [Compound 4g]
Reply: 22.6

Query: Consider next the molecule N#Cc1c(N)nc(S)nc1-c1ccc(Cl)cc1 [Compound 1b] in the same way.
Reply: 79.2

Query: Follow-up entry: N=C(NN=Cc1ccc(Br)cc1)c1c(N)nc(S)nc1-c1ccc(Cl)cc1Cl [Compound 4q]
Reply: 109

Query: Subsequent entry: CN(C)c1ccc(-c2nc(S)nc(N)c2C(=N)NN=Cc2ccc(Br)cc2)cc1 [Compound 4e]
Reply: 98.6

Query: Now give it for N=C(NN=Cc1ccc([N+](=O)[O-])cc1)c1c(N)nc(S)nc1-c1ccc(Cl)cc1Cl [Compound 4o] too.
Reply: 96.5

Query: What would you report for N=C(NN=Cc1ccc(Br)cc1)c1c(N)nc(S)nc1-c1ccc(Cl)cc1 [Compound 4k] ?
Reply: 92.3

Query: Now give it for CN(C)c1ccc(-c2nc(S)nc(N)c2-c2ncn[nH]2)cc1 [Compound 5a] too.
Reply: 109

Query: Further, for N=C(NN=Cc1ccc(Cl)cc1Cl)c1c(N)nc(S)nc1-c1ccc(Cl)cc1Cl [Compound 4r] ?
Reply: 104

Query: Cool, now N=C(NN=Cc1ccccc1)c1c(N)nc(S)nc1-c1ccc(Cl)cc1Cl [Compound 4m]
Reply: 100

Query: Please answer likewise for N=C(NN=Cc1ccc([N+](=O)[O-])cc1)c1c(N)nc(S)nc1-c1ccc(Cl)cc1 [Compound 4i]
Reply: 106

Query: COc1ccc(C=NNC(=N)c2c(N)nc(S)nc2-c2ccc(Cl)cc2Cl)cc1 [Compound 4p] , same question.
Reply: 103

Query: Cool, now COc1ccc(C=NNC(=N)c2c(N)nc(S)nc2-c2ccc(Cl)cc2)cc1 [Compound 4j]
Reply: 104
